Molecular target: Beta-3 adrenergic receptor (Homo sapiens)
Sequence (P13945 whole entry): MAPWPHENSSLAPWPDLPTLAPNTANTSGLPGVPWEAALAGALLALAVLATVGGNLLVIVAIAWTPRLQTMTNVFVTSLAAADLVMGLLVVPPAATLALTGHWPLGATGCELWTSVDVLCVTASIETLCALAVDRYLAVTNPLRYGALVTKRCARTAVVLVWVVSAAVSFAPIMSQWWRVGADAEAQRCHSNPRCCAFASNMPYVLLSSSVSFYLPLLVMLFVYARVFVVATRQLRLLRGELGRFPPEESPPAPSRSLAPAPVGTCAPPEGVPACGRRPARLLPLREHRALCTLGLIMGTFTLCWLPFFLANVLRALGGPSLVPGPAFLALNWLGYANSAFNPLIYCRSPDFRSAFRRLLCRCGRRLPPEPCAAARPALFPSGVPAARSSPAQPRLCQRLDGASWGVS
Assay: Agonist activity towards human Beta-3 adrenergic receptor
Entries and their log10 EC50 values follow.
The figures below represent log10 of EC50, where EC50 is stated in nM.

Record excerpt, results attached:
[
  {
    "COMPOUND STRUCTURE STRING": "CCCC(=O)Nc1ccc(S(=O)(=O)Nc2ccc(CCNC[C@H](O)COc3ccc(O)cc3)cc2)cc1",
    "SUBJECT OF TEST": "Beta-3 adrenergic receptor (Homo sapiens)",
    "ASSAY READOUT": "log10 EC50",
    "READOUT VALUE": 0.83
  },
  {
    "COMPOUND STRUCTURE STRING": "CCCCCCCCNC(=O)Nc1ccc(S(=O)(=O)Nc2ccc(CCNC[C@H](O)COc3ccc(O)cc3)cc2)cc1",
    "SUBJECT OF TEST": "Beta-3 adrenergic receptor (Homo sapiens)",
    "ASSAY READOUT": "log10 EC50",
    "READOUT VALUE": 0.00
  }
]

Item "O=C(Nc1ccc(S(=O)(=O)Nc2ccc(CCNC[C@H](O)COc3ccc(O)cc3)cc2)cc1)NC1CCCCC1" : provide log10 EC50
0.28

Item "COC(=O)Nc1ccc(S(=O)(=O)Nc2ccc(CCNC[C@H](O)COc3ccc(O)cc3)cc2)cc1" : provide log10 EC50
-0.15

Item "CCCCCCNC(=O)N(C)c1ccc(S(=O)(=O)Nc2ccc(CCNC[C@H](O)COc3ccc(O)cc3)cc2)cc1" : provide log10 EC50
0.82

Item "CCCCCCN(C)C(=O)Nc1ccc(S(=O)(=O)Nc2ccc(CCNC[C@H](O)COc3ccc(O)cc3)cc2)cc1" : provide log10 EC50
0.32

Item "CC(C)(C)OC(=O)N(CCc1ccc(NS(=O)(=O)c2ccc(N)cc2)cc1)C[C@H](O)COc1ccc(O[Si](C)(C)C(C)(C)C)cc1" : provide log10 EC50
1.23

meta.source: ChEMBL document CHEMBL1131408
